- system: hCA XII (Homo sapiens, UniProt O43570)
- Sequence (O43570 25-354): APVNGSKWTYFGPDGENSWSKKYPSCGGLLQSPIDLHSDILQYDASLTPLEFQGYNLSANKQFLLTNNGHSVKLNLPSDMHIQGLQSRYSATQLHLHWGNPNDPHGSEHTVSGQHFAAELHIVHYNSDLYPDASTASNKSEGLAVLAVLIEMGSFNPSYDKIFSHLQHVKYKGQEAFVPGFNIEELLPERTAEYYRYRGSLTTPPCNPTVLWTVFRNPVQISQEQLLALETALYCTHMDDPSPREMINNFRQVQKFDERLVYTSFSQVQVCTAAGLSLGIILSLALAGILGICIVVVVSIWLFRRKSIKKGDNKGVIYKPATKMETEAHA
- assay.name: Stopped-flow CO2 hydrase assay, hCA XII
- measurement.setup: stopped flow, mean from 3 assays, errors 5–10%
endpoint: Ki (nM)

*Q* Form field: Ki recorded for "CC(C)(C)c1ccc(C2=C/C(=C\c3ccc(F)cc3)C(=O)N2CCc2ccc(S(N)(=O)=O)cc2)cc1" with hCA XII (Homo sapiens, UniProt O43570) (enter value)
*A* 356

*Q* Form field: Ki recorded for "CCc1ccc(C2=C/C(=C\c3ccc(F)cc3)C(=O)N2CCc2ccc(S(N)(=O)=O)cc2)cc1" with hCA XII (Homo sapiens, UniProt O43570) (enter value)
*A* 66.2

*Q* Form field: Ki recorded for "NS(=O)(=O)c1ccc(CCN2C(=O)/C(=C/c3ccc(F)cc3)C=C2c2ccc(Cl)cc2)cc1" with hCA XII (Homo sapiens, UniProt O43570) (enter value)
*A* 39.1

*Q* Form field: Ki recorded for "CCc1ccc(C2=C/C(=C\c3ccc(Cl)cc3)C(=O)N2CCc2ccc(S(N)(=O)=O)cc2)cc1" with hCA XII (Homo sapiens, UniProt O43570) (enter value)
*A* 91.1

*Q* Form field: Ki recorded for "Cc1ccc(C2=C/C(=C\c3ccc(Br)cc3)C(=O)N2CCc2ccc(S(N)(=O)=O)cc2)cc1" with hCA XII (Homo sapiens, UniProt O43570) (enter value)
*A* 94

[I] CC(C)(C)c1ccc(C2=C/C(=C\c3ccc(Br)cc3)C(=O)N2CCc2ccc(S(N)(=O)=O)cc2)cc1
[II] NS(=O)(=O)c1ccc(CCN2C(=O)/C(=C/c3ccccc3)C=C2c2ccccc2)cc1
*Q* Which one would you say has the larger Ki value: I , or II ? Please respond with the label that marks your chosen entry.
*A* I
(I: 308 nM, II: 62.1 nM)
